Target: Somatostatin receptor type 2 (Rattus norvegicus)
Sequence (P30680 whole entry): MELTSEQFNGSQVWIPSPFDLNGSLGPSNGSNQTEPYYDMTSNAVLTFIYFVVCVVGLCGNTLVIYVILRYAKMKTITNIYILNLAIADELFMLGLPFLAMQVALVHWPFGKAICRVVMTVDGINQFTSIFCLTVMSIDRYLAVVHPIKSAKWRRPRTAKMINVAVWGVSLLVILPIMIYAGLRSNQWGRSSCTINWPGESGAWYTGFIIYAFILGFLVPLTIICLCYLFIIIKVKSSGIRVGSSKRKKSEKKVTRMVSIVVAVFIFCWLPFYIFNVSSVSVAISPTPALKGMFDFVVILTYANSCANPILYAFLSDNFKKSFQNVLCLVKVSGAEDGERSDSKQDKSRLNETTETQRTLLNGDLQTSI
Consider the following compounds; for each one, report its Kd.
Give bare numbers, in µM.

A selection of reference data follows.
>>> value_observed("CN(CCC(=O)N1CCN(c2ccc([N+](=O)[O-])cc2)CC1)CCc1ccc2ccccc2c1")
16.6
>>> value_observed("CN(CCC(=O)N1CCN(c2ccc3nonc3c2)CC1)CCC1c2ccccc2-c2ccccc21")
4.17
>>> value_observed("CC(C)N(CCC(=O)N1CCN(c2ccc([N+](=O)[O-])cc2)CC1)CCC1c2ccccc2-c2ccccc21")
0.912

List the reported Kd of each compound below.
1. CN(CCC(=O)N1CCN(c2ccc([N+](=O)[O-])cc2)CC1)CCC1c2ccccc2C=Cc2ccccc21
2. CN(CCC(=O)N1CCN(c2ccc([N+](=O)[O-])cc2)CC1)CCC1c2ccccc2-c2ccccc21

1. 5.13
2. 6.92

List the reported Kd of each compound below.
1. O=C(CCN(CCC1c2ccccc2-c2ccccc21)CC1CC1)N1CCN(c2ccc([N+](=O)[O-])cc2)CC1
2. CN(CCC(=O)N1CCN(c2ccc([N+](=O)[O-])cc2)CC1)CCC(c1ccccc1)c1ccccc1
3. CN(CCC(=O)N1CCN(c2ccc([N+](=O)[O-])cc2)CC1)CCC1c2ccccc2Cc2ccccc21

6.92
8.32
18.6

###

Target: UniProt P08684
Sequence (P08684 whole entry): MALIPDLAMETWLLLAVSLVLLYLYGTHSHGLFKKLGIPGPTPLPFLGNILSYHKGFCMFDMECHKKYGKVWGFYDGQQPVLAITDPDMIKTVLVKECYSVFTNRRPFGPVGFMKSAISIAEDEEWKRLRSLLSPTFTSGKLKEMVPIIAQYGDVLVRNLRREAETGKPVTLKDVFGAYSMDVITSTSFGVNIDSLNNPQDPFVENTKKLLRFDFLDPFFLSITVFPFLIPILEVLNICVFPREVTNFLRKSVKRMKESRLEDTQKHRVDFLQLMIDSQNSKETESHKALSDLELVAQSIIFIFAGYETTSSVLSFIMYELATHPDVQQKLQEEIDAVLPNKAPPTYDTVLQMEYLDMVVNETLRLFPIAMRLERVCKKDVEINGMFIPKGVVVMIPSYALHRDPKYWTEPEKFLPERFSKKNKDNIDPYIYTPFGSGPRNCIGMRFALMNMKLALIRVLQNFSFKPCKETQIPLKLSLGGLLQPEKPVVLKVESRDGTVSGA
Quantity measured: IC50

Report measured IC50 on UniProt P08684; entry: CN(CCC(=O)N1CCN(c2ccc(F)c(F)c2)CC1)CCC1c2ccccc2Oc2ccccc21
> 10 µM

###

Consider the following molecules; for each one, report its fold change (FC).
Organism: Rattus norvegicus
Assay comment: Selectivity for rat sst1 receptor over rat sst2 receptor

>>> value_observed("CN(CCC(=O)N1CCN(c2ccc3nonc3c2)CC1)CCC1c2ccccc2-c2ccccc21")
"> 10000"
>>> value_observed("CN(CCC(=O)N1CCN(c2ccc([N+](=O)[O-])cc2)CC1)CCC1c2ccccc2-c2ccccc21")
"> 1000"

List the reported fold change (FC) of each molecule below.
1. CN(CCC(=O)N1CCN(c2ccc3nonc3c2)CC1)CCC1c2ccccc2Oc2ccccc21
2. CN(CCC(=O)N1CCN(c2ccc(F)c(F)c2)CC1)CCC1c2ccccc2-c2ccccc21.Cl

["> 10000", "> 10000"]

List the reported fold change (FC) of each molecule below.
1. CN(CCC(=O)N1CCN(c2ccc([N+](=O)[O-])cc2)CC1)CCC1c2ccccc2CCc2ccccc21
2. CN(CCC(=O)N1CCN(c2ccc([N+](=O)[O-])cc2)CC1)CCC1c2ccccc2Oc2ccccc21
3. CN(CCC(=O)N1CCN(c2ccc(F)c(F)c2)CC1)CCC1c2ccccc2Oc2ccccc21

> 100
> 1000
> 10000

###

Target: D(2) dopamine receptor (Homo sapiens, UniProt P14416)
Sequence (P14416 whole entry): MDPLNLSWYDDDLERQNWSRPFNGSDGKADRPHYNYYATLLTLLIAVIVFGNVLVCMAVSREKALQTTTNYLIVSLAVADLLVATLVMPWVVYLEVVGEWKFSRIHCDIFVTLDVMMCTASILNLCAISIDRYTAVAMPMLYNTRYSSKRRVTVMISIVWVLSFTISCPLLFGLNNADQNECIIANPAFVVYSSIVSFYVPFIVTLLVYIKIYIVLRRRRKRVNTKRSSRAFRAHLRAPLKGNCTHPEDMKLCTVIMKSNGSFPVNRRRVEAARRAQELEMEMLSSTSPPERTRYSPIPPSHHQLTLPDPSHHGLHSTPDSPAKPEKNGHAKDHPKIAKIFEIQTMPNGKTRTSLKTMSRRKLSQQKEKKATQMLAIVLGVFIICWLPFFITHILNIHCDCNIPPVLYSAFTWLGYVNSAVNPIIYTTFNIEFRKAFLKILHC
Assay comment: Binding affinity to dopamine D2 receptor
Quantity measured: pKd
Answers are plain numbers, as −log10 of the molar value.

>>> value_observed("CN(CCC(=O)N1CCN(c2ccc(F)c(F)c2)CC1)CCC1c2ccccc2-c2ccccc21.Cl")
6.11

Write down pKd measured for item CN(CCC(=O)N1CCN(c2ccc(F)c(F)c2)CC1)CCC1c2ccccc2Oc2ccccc21
6.31

###

Assay comment: Apparent terminal half life in mouse plasma at 10 umol/kg, iv and 30 umol/kg, po
Format: ADME, organism-based
Condition label: read-out: beta t1/2 (converted)
Quantity measured: half-life
Hey, just the number and the unit after it is fine.

>>> value_observed("CN(CCC(=O)N1CCN(c2ccc(F)c(F)c2)CC1)CCC1c2ccccc2Oc2ccccc21")
"11 h"

Let's switch to this compound now.
Write down half-life measured for item CN(CCC(=O)N1CCN(c2ccc(F)c(F)c2)CC1)CCC1c2ccccc2-c2ccccc21.Cl
6 h
